Biological target: UniProtKB P04150
Sequence (P04150 1-777): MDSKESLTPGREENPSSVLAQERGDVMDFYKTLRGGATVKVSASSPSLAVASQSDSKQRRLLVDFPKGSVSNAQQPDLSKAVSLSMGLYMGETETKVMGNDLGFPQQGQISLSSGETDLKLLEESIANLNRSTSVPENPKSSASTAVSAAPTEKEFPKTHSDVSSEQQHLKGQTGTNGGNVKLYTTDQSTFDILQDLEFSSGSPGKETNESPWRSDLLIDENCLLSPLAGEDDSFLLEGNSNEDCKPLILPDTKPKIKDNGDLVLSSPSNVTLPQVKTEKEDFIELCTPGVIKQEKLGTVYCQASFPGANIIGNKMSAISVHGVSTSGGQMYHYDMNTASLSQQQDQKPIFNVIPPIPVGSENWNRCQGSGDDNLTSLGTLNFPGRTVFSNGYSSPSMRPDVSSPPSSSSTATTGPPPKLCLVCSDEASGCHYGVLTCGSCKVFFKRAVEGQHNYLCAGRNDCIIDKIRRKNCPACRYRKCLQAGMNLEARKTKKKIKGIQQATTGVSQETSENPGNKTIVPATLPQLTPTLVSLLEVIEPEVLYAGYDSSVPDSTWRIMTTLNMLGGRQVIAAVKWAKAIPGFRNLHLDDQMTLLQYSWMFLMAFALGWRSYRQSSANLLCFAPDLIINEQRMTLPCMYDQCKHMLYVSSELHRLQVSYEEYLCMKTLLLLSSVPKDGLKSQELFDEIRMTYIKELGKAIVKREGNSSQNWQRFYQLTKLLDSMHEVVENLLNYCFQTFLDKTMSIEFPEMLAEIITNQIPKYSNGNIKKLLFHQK
QUANTITY_NAME: pIC50
Remember, pIC50 is on a log scale: it is -log10 of the molar concentration.

IN: So what's the measured pIC50 for this one? CC(=O)/C=C/C1=C(C)CCCC1(C)C [β-ionone]
OUT: 4.18
